Test system: 786-0 renal
experiment: NCI tumour cell line growth inhibition, 48 h
Assignment: determine reported TGI for the given compounds.

Problem: Entry "C=C(CN1CCc2ccccc2C1)c1ccc(C(=O)Nc2ccc(N)cc2)cc1" has what TGI?
Solution: > 100 µM

Problem: Then what about the compound "COc1ccc(-c2nc(-c3ccccc3)c(-c3ccccc3)n2C2CC2)cc1OC1CCCC1" ?
Solution: > 165 µM

Problem: Another compound to look at: "Cc1cc2c(s1)C(=O)c1sccc1C2=O"
Solution: 3.26 µM

Problem: Quick one: N#CC12C3C4CC5C6C4C1C6C(O)(C53)N2Cc1ccccc1 (stereo not drawn)
Solution: > 100 µM

Problem: Try this compound too: "[N-]=[N+]=Nc1ccc2c(c1)Sc1ccccc1N2CCCCCl"
Solution: > 100 µM

Problem: Quick one: CC(=O)OC1COC(n2c(N)c(C#N)c(C)c(C#N)c2=S)C(OC(C)=O)C1OC(C)=O (stereo not drawn)
Solution: > 100 µM

Problem: What do you have for O=C(C(Br)Br)C(Br)C(Br)c1ccccc1 (stereo not drawn) ?
Solution: 11 µM

Problem: Same lookup for "C=C[C@@]1(C)CC(=O)[C@]2(O)[C@@]3(C)[C@@H](OC(C)=O)CCC(C)(C)[C@@H]3[C@H](OC(C)=O)[C@H](OC(C)=O)[C@@]2(C)O1" , please.
Solution: > 100 µM

Problem: Try the compound "Cn1c2nc3ccccc3c-2cc2ccccc21"
Solution: > 100 µM

Problem: What about "Nc1c(-c2nc3ccccc3[nH]2)sc(=S)n1-c1ccccc1" ?
Solution: > 100 µM

Problem: What do you get for "COc1cc(/C=C/C(=O)c2ccc(Cl)cc2)ccc1OS(=O)(=O)c1ccc(C)cc1" ?
Solution: 24.6 µM

Problem: Do the same for "CCCNC(=S)/N=C\c1c(O)c2ccccc2oc1=O" please
Solution: > 100 µM

Problem: Entry to check: "Cc1ccc2c(N)c(C(=O)N[C@H]3CCc4cc(N5CC6CCC(C5)N6)ccc4C3)sc2n1"
Solution: 3.86 µM

Problem: Here is the next compound: "COC[n+]1cc2cc(OC)c(OC)cc2c2ccc3cc(OC)c(OC)cc3c21"
Solution: > 100 µM

Problem: Consider next the compound "CC(=O)c1ccc2c(c1)oc(=O)n2CCN1CCCCC1" in the same way.
Solution: > 100 µM

Problem: Lookup "O=C1CCC2SC1CCC2=O"
Solution: > 100 µM

Problem: Next up: CC(=O)OCC1OC(n2c(=O)n(-c3ccccc3)c(=O)c3ccccc32)C(OC(C)=O)C(OC(C)=O)C1OC(C)=O (stereo not drawn)
Solution: > 100 µM

Problem: Repeat with COc1c(O)ccc2c1CN1CCc3cc4c(cc3C1C2)OCO4 (stereo not drawn)
Solution: > 100 µM

Problem: Now give it for NC1=NC(OCC2(CO)CCC2)C=C(NCC2(CO)CCC2)N1 (stereo not drawn) too.
Solution: > 100 µM

Problem: Item: O=C1/C(=C\c2ccc(-c3ccc(Cl)cc3Cl)o2)SC2N=C(COc3ccc(Cl)cc3)NN12 (stereo not drawn)
Solution: > 100 µM

Problem: Now this one: CC(=O)CCC[C@@H](C)[C@@H]1O[C@H]([C@@]2(C)CCC(=O)O2)C[C@H]2C(CSc3ccccc3)C(=O)O[C@@H]12 (stereo partly drawn)
Solution: 42.2 µM

Problem: // same read-out, input: "Nc1ccccc1C#C/C=C\C#Cc1ccc(Cl)cc1Cl"
Solution: 27.4 µM

Problem: Next: [N-]=[N+]=NC1C(Br)C(=O)NC(=O)N1[C@H]1C[C@H](O)[C@@H](CO)O1 (stereo partly drawn)
Solution: > 100 µM

Problem: Field entry: "O=C1c2ccccc2-c2c1c1ccccc1c(=O)n2CCNCCNCCn1c2c(c3ccccc3c1=O)C(=O)c1ccccc1-2"
Solution: 2.37 µM

Problem: Likewise for "C/C=C(\C)C(=O)O[C@H]1C=CC(=O)O[C@H]1CNC(=O)[C@H](C)O" ?
Solution: 26.1 µM

Problem: Please do the same for "C[N+]1(C)CCC(C#N)(c2ccccc2)CC1" as well.
Solution: > 100 µM

Problem: Also CC(=O)Nc1ccc(C2[C@H]3C(=O)N(c4ccc(Cc5ccc(N6C(=O)[C@@H]7ON(c8ccccc8)C(c8ccc(NC(C)=O)cc8)[C@@H]7C6=O)cc5)cc4)C(=O)[C@H]3ON2c2ccccc2)cc1 (stereo partly drawn) , if possible.
Solution: > 100 µM

Problem: What do you get for "c1ccc(CCN(Cc2nc3ccccc3[nH]2)Cc2nc3ccccc3[nH]2)cc1" ?
Solution: 31.7 µM
